Overview of reported IC50 across a group of compounds:
biological target: Tyro 3 (Homo sapiens (Human)); test: Tyro 3 kinase inhibition assay (Cisbio method, Eu-labeled antibody to phosphorylated peptide); details: read-out: IC50 (μM) Tyro 3; 1 hour reaction with substrate peptide and ATP
Sequence (Q06418 41-890): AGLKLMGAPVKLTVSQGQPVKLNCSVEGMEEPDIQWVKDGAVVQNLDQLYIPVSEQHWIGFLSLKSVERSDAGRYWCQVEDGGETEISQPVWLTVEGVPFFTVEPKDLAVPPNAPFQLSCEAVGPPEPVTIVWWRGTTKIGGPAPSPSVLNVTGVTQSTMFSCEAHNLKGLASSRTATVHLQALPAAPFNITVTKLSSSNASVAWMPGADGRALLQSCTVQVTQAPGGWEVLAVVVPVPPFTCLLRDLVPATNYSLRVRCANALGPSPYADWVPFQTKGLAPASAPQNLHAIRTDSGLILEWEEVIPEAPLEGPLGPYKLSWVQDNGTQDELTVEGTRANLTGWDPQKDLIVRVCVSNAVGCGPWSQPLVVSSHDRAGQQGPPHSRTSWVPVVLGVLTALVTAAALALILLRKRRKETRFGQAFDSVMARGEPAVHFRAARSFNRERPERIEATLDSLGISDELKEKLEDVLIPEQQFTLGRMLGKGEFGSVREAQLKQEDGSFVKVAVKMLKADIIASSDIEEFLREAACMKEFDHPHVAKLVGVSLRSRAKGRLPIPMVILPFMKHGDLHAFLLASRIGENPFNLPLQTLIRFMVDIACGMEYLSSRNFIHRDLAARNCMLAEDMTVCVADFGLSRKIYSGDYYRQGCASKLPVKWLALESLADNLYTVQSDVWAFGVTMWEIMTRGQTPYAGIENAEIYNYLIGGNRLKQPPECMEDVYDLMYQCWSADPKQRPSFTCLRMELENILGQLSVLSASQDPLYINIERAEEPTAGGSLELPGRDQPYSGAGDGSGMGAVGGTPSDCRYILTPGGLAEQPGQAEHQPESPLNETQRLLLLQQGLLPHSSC
propertyName: IC50

> print(dat)
                                smilesentry  propertyname  measuredvalue
1          Cn1cc(-c2cnc(Cl)nc2NC2CCCCC2)cn1          IC50        > 10 µM
2       Cc1ccc(Nc2ncc(Br)c(NC3CCCCC3)n2)cc1          IC50        > 10 µM
3  Cn1cc(-c2cnc(Nc3cc(C(F)(F)F)cc(C(F)(F)F)c3)nc2Nc2ccc3c(c2)CN(C(=O)C(F)(F)F)CC3)cn1          IC50     6.2e-06 µM

----------
Overview of reported IC50 across a group of compounds:
target: Mer (Homo sapiens (Human)); assay: Mer kinase inhibition assay (Cisbio method, Eu-labeled antibody to phosphorylated peptide); conditions: read-out: IC50 (μM) Mer; 1 hour reaction with substrate peptide and ATP
Sequence (Q12866 21-999): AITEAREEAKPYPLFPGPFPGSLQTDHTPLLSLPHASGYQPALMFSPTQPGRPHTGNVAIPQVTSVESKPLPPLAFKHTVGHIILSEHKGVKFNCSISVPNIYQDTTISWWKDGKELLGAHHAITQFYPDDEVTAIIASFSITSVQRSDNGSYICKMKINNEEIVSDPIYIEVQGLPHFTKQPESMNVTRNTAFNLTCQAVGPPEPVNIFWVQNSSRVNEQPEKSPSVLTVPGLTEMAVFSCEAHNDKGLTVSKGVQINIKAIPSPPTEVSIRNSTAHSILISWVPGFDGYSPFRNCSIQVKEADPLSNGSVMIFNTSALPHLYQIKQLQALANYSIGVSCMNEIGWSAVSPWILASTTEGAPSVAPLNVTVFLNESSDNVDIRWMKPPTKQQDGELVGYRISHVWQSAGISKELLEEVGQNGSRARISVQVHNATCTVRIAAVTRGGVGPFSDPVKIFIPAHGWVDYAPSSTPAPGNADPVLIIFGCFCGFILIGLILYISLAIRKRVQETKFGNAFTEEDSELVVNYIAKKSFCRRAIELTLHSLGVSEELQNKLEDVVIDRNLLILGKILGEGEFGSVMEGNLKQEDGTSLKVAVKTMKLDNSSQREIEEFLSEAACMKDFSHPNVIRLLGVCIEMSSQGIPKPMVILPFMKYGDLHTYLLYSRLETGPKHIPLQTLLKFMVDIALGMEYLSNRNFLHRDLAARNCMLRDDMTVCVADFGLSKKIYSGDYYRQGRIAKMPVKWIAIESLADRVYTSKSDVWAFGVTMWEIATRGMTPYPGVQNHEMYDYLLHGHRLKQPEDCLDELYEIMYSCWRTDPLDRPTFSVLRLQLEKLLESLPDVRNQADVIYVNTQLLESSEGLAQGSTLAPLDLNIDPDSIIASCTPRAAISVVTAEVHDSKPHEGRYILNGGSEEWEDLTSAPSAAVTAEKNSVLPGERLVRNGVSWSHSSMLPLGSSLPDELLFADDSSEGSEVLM
propertyName: IC50

> print(dat)
                                   compound  propertyname  measuredvalue
1       Cc1ccc(Nc2ncc(Br)c(NC3CCCCC3)n2)cc1          IC50        > 10 µM
2  CCOc1cn(-c2ccc(F)cc2C)nc1C(=O)Nc1ccc(Oc2ccnc3cc(OC)c(OC)cc23)c(F)c1 [LDC1267, reference compound]          IC50       0.068 µM
3          Cn1cc(-c2cnc(Cl)nc2NC2CCCCC2)cn1          IC50        > 10 µM
4  Cn1cc(-c2cnc(Nc3cc(Cl)cc(Cl)c3)nc2NC2CCCCC2)cn1          IC50         > 2 µM
